biological target: Gal(b1-3)GlcNAc(b1-6)[Gal(b1-3)]GalNAc; assay: glycan array binding signal (z-score within array); higher = stronger binding; settings: glycan notation: IUPAC condensed, linker removed
Many of the other results were omitted from the sample, so the strongest signals are more common in it than they were.
glycan array binding signal (z-score) for assorted binders
Experimental Endpoint: glycan array binding signal (z-score)

SUN4 (Saccharomyces cerevisiae), P53616 (protein) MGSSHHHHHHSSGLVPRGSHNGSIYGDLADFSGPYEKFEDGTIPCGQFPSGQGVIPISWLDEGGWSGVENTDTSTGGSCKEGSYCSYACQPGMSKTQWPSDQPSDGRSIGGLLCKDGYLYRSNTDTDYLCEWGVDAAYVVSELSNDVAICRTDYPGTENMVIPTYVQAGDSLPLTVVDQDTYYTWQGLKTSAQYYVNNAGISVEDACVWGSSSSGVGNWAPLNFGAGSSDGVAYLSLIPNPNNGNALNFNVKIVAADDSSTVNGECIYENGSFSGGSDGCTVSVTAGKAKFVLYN: 0.101
UDA (Urtica dioica), P11218 (protein) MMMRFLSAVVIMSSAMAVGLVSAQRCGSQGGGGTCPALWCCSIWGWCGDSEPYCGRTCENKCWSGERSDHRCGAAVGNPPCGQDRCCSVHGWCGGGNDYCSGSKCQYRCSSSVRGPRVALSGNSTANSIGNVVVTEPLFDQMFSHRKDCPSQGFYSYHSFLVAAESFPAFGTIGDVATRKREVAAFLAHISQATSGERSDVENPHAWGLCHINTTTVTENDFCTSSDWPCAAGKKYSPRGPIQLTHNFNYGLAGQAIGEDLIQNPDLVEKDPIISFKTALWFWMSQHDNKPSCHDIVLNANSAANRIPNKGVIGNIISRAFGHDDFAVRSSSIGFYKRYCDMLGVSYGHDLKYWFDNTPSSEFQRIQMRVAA: -0.177
Agalectin (Anopheles gambiae) (protein) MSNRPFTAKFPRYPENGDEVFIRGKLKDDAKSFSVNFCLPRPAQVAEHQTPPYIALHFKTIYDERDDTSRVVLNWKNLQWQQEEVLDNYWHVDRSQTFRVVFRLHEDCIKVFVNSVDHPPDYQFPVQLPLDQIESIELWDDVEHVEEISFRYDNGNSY: -1.37

From: the supplement of paper PMC8728848
